I'd be grateful if you could share measured Kd for these entries.
Molecular target: BRD3 BD1 WT (Homo sapiens)
Sequence (Q15059 24-144): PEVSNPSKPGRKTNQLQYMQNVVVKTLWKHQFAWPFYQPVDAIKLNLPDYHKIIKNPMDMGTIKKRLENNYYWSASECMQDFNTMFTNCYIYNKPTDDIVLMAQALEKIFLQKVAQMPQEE
Experiment: ITC
Type: binding
Numbers only, in µM.

Example cases with answers are listed next.
{"columns": ["molecule", "targetDesc", "unitInfo", "measuredResult"],
 "data": [
  ["CC[C@@H](C(=O)OC)[C@@H]1N=C(c2ccc(Cl)cc2)c2cc(OC)ccc2-n2c(C)nnc21 (relative stereo)", "BRD3 BD1 WT (Homo sapiens)", "µM", 3.3],
  ["CC[C@@H](C(=O)OC)[C@@H]1N=C(c2ccc(Cl)cc2)c2ccc(OC)cc2-n2c(C)nnc21 (racemic)", "BRD3 BD1 WT (Homo sapiens)", "µM", 29],
  ["COC(=O)[C@H](C)[C@@H]1N=C(c2ccc(Cl)cc2)c2ccc(OC)cc2-n2c(C)nnc21 (racemic) [Compound 7]", "BRD3 BD1 WT (Homo sapiens)", "µM", 12],
  ["COC(=O)[C@H](C)[C@@H]1N=C(c2ccc(Cl)cc2)c2ccc(OC)cc2-n2c(C)nnc21 [(2R,3S)-7]", "BRD3 BD1 WT (Homo sapiens)", "µM", 7.5]
]}

Now take the following molecule into account.
Identify measured Kd corresponding to C=CC[C@@H](C(=O)OC)[C@@H]1N=C(c2ccc(Cl)cc2)c2cc(OC)ccc2-n2c(C)nnc21 (racemic)
1.5
